For each entry below, report its Kd value.
# System: rPrP90-231 (globular domain of recombinant prion protein) (murine, UniProt P04925 90-231)
# Assay Name: ITC
Field: numeric (nM). Do not append units.

# Kd of CCGCGTACAATCGAGCTCGGGTGTC (structured_DNA) [A1] = 232

# Kd of TGGTGGTAACAGACCCTTCCACGGC (ssDNA) [A2] = 1930
